System: SK-MES-1
test.protocol: relative viability (nuclei count vs DMSO), 5 days (fraction); higher = more cells survive
test.context: first compound 1 µM
Lab note: anything with relative viability below 1 is marked Condition met; values at 1 or higher are marked Condition not met.

# compound, assigned.category
records = [
    ("O=c1cc(N2CCOCC2)oc2c(-c3cccc4c3sc3ccccc34)cccc12 + C[C@@H](Oc1cc(-c2cnn(C3CCNCC3)c2)cnc1N)c1c(Cl)ccc(F)c1Cl [Crizotinib] (partner 1 µM)", "Condition not met"),
    ("O=c1cc(N2CCOCC2)oc2c(-c3cccc4c3sc3ccccc34)cccc12 + COc1cccc2cc(-c3nc([C@H]4CC[C@H](C(=O)O)CC4)n4ncnc(N)c34)[nH]c12 [OSI-027] (partner 0.5 µM)", "Condition met"),
    ("O=c1cc(N2CCOCC2)oc2c(-c3cccc4c3sc3ccccc34)cccc12 + CCNC(=O)c1noc(-c2cc(C(C)C)c(O)cc2O)c1-c1ccc(CN2CCOCC2)cc1 [Luminespib] (partner 0.01 µM)", "Condition met"),
]

Switching to the query record.
Prompt line: Consider the compound O=c1cc(N2CCOCC2)oc2c(-c3cccc4c3sc3ccccc34)cccc12 + CC1(C)CCC(c2ccc(Cl)cc2)=C(CN2CCN(c3ccc(C(=O)NS(=O)(=O)c4ccc(N[C@H](CCN5CCOCC5)CSc5ccccc5)c(S(=O)(=O)C(F)(F)F)c4)cc3)CC2)C1 [Navitoclax] (partner 0.5 µM) . Is its relative viability strictly less than 1?
Response line: Condition not met

###

Test system: HCC-366
test.protocol: relative viability (nuclei count vs DMSO), 5 days (fraction); higher = more cells survive
test.context: first compound 1 µM
As shown below, each of these compounds has a reported relative viability value.
Simply state the number, no unit and no words.

# compound, relative viability
rows = [
    ("CCN(CC)CCCCNc1ncc2cc(-c3cc(OC)cc(OC)c3)c(NC(=O)NC(C)(C)C)nc2n1 + Nc1ncn([C@H]2C[C@H](O)[C@@H](CO)O2)c(=O)n1 [Decitabine] (partner 2 µM)", 0.319),
    ("O=c1cc(N2CCOCC2)oc2c(-c3cccc4c3sc3ccccc34)cccc12 + CS(=O)(=O)CCNCc1ccc(-c2ccc3ncnc(Nc4ccc(OCc5cccc(F)c5)c(Cl)c4)c3c2)o1 [Lapatinib] (partner 2 µM)", 1.04),
]

Next compound, relative viability to be filled in.
relative viability for CCN(CC)CCCCNc1ncc2cc(-c3cc(OC)cc(OC)c3)c(NC(=O)NC(C)(C)C)nc2n1 + C[C@]1(O)C[C@@H](c2nc(-c3ccc4ccc(-c5ccccc5)nc4c3)c3c(N)nccn32)C1 [Linsitinib] (partner 1 µM) is 0.505

###

System: NCI-H1437
test.protocol: relative viability (nuclei count vs DMSO), 5 days (fraction); higher = more cells survive
test.context: first compound 0.1 µM
outcome.measure: relative viability
# print the numeric value only

The reported value for CCN(CC)CCCCNc1ncc2cc(-c3cc(OC)cc(OC)c3)c(NC(=O)NC(C)(C)C)nc2n1 + Cc1nc(Nc2ncc(C(=O)Nc3c(C)cccc3Cl)s2)cc(N2CCN(CCO)CC2)n1 [Dasatinib] (partner 0.075 µM) in terms of relative viability is 0.419

CCN(CC)CCCCNc1ncc2cc(-c3cc(OC)cc(OC)c3)c(NC(=O)NC(C)(C)C)nc2n1 + CCNC(=O)c1noc(-c2cc(C(C)C)c(O)cc2O)c1-c1ccc(CN2CCOCC2)cc1 [Luminespib] (partner 0.01 µM) yielded relative viability of 1.26

molecule CCN(CC)CCCCNc1ncc2cc(-c3cc(OC)cc(OC)c3)c(NC(=O)NC(C)(C)C)nc2n1 + O=C(c1cc(Cc2n[nH]c(=O)c3ccccc23)ccc1F)N1CCN(C(=O)C2CC2)CC1 [Olaparib] (partner 8 µM) , relative viability observed: 0.681

relative viability for O=c1cc(N2CCOCC2)oc2c(-c3cccc4c3sc3ccccc34)cccc12 + Nc1nc2[nH]cc(CCc3ccc(C(=O)N[C@@H](CCC(=O)O)C(=O)O)cc3)c2c(=O)[nH]1 [Pemetrexed] (partner 0.2 µM) is 0.313

The molecule O=c1cc(N2CCOCC2)oc2c(-c3cccc4c3sc3ccccc34)cccc12 + CS(=O)(=O)N1CCN(Cc2cc3nc(-c4cccc5[nH]ncc45)nc(N4CCOCC4)c3s2)CC1 [Pictilisib] (partner 1 µM) showed relative viability equal to 0.542

For CCN(CC)CCCCNc1ncc2cc(-c3cc(OC)cc(OC)c3)c(NC(=O)NC(C)(C)C)nc2n1 + C[C@]1(O)C[C@@H](c2nc(-c3ccc4ccc(-c5ccccc5)nc4c3)c3c(N)nccn32)C1 [Linsitinib] (partner 1 µM) the molecule record lists relative viability as 1.13

The recorded relative viability for entry CCN(CC)CCCCNc1ncc2cc(-c3cc(OC)cc(OC)c3)c(NC(=O)NC(C)(C)C)nc2n1 + N=C(N)NC(=N)NCCc1ccccc1 [Phenformin] (partner 250 µM) equals 0.28

For this molecule ( CCN(CC)CCCCNc1ncc2cc(-c3cc(OC)cc(OC)c3)c(NC(=O)NC(C)(C)C)nc2n1 + CC1(C)CCC(c2ccc(Cl)cc2)=C(CN2CCN(c3ccc(C(=O)NS(=O)(=O)c4ccc(N[C@H](CCN5CCOCC5)CSc5ccccc5)c(S(=O)(=O)C(F)(F)F)c4)cc3)CC2)C1 [Navitoclax] (partner 0.5 µM) ), measured relative viability is 1.35
